molecular target: T1, human recombinant CD117 (c-Kit) from Sino Biological (Catalog No. 11996-H08H) (human, UniProt P10721 26-524); experiment: BLI Octet, IgG on anti-human Fc sensor, soluble CD117, 1:1 fit
T1 construct: also called soluble antigen
T1 sequence (P10721 26-524 limits assumed): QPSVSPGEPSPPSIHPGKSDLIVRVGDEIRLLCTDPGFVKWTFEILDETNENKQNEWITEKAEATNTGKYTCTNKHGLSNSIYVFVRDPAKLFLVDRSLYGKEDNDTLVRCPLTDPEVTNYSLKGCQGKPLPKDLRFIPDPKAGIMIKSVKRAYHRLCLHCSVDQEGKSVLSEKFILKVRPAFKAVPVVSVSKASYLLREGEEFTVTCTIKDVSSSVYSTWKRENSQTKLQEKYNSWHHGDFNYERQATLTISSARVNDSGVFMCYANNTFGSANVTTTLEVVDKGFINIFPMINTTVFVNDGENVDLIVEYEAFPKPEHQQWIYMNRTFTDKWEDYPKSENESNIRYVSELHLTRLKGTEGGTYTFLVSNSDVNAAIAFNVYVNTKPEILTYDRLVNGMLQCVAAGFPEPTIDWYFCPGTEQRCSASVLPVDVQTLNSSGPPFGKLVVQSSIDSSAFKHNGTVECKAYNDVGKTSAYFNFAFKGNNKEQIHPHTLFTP
measured_parameter: kon

# count of solved cases: 2
Which kon value is on record for HC3 LC2 (antibody, V domains shown, IgG; also called VH3/VL2) VH: QVQLVQSGAEVRKPGASVKLSCKASGYTFTSYNMHWVRQAPGQGLEWMGVIYSGNGDTSYNQKFKGRVTLTRDTSTSTVYMELSSLRSEDTAVYYCARERDTRFGNWGQGTLVTVSA VL: DIVMTQSPSTLSASVGDRVTITCRASESVDIYGNSFMHWYQQKPGKAPKLLIYLASNLESGVPSRFSGSGSGTEFTLTISSLQPDDFATYYCQQNNEDPYTFGQGTKLEIK ? 577000 M⁻¹ s⁻¹

Next up: HC2 LC5 (antibody, V domains shown, IgG; also called VH2/VL5) VH: QVQLVESGAEVKKPGASVKLSCKASGYTFTSYNMHWVRQAPGQRLEWMGVIYSGNGDTSYNQKFKGRVTITVDKSASTAYMELSSLRSEDTAVYYCARERDTRFGNWGQGTLVTVSA VL: DIQMTQSPSSLSASVGDRVTITCRASESVDIYGNAFMHWYQQKPGKAPKLLIYLASNLESGVPSRFSGSGSGTDFTLTISSLQPEDFATYYCQQANEEPYTFGGGTKLEIK 632000 M⁻¹ s⁻¹

We now examine a further binder.
Which kon value is on record for Dufour (antibody, V domains shown, IgG; also called VH1/VL1; HC1 LC1) VH: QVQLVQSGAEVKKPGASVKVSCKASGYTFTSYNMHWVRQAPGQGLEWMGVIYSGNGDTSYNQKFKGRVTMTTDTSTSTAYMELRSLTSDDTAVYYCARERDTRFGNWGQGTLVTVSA VL: EIVLTQSPSSLSASVGDRVTITCRASESVDIYGNSFMHWYQQKPGKAPKLLIYLASNLESGVPSRFSGSGSGTDFTLTISSLQPEDFATYYCQQNNEDPYTFGQGTKLEIK ? 503000 M⁻¹ s⁻¹
